Each entry below carries its recorded pEC50.
tgt: human cannabinoid receptor type 2 (Homo sapiens)
Construct: expressed in transfected cells; membrane preparation
Sequence (P34972 whole entry): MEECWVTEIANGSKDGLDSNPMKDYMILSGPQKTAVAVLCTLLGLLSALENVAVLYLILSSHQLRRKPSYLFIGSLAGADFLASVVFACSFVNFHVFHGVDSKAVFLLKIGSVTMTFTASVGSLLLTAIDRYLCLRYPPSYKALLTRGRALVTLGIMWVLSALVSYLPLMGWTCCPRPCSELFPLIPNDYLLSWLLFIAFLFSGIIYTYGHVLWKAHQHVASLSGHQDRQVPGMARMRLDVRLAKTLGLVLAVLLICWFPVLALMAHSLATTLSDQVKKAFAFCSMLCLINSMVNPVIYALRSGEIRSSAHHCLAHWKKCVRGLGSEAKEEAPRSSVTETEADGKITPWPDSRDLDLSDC
assay_info: Human CB2 Radioligand Binding Assay
condition: competition with [3H] CP-55,940; membranes from stably transfected CHO CB2 cells; read-out: CB2 Ligand Binding Asssay EC50
Description: 1. Human CB2 Radioligand Binding Assay This receptor binding filtration assay measures the receptor-ligand interactions of compounds by measuring ability to compete with a radiolabeled control ligand. […] Tritiated CP-55,940 (Perkin Elmer) was used at the Kd determined from prior saturation binding experiments conducted on each lot of membranes. […] Betaplate Scint Scintillation cocktail (25 ul, Perkin Elmer) was applied and plates were read using Microbeta Trilux (Wallac). […]
pEC50: −log10 of the molar value.

- molecule: "COc1cc2nc(CNS(=O)(=O)c3cccc4ccccc34)nc(N3CCCC3)c2cc1OC"
  pEC50: "> 6.00"
- molecule: "COC(=O)c1ccc2nc(-c3ccccc3Cl)nc(N3CCc4cc(OC)ccc43)c2c1"
  pEC50: "< 6.00"
- molecule: "CC(C)(C)c1ccc(-c2nc(N3CCCC3)c3ccccc3n2)cc1"
  pEC50: "> 6.00"
- molecule: "CC1CCN(c2nc(-c3ccc(Cl)cc3)nc3ccccc23)CC1"
  pEC50: "> 6.00"
- molecule: "COC(CNc1nc(-c2ccccc2Cl)nc2ccccc12)OC"
  pEC50: "< 6.00"
- molecule: "CCOC(=O)N1CCN(c2nc(-c3ccccc3Cl)nc3ccc(F)cc23)CC1"
  pEC50: "> 6.00"
- molecule: "CC(C)(C)c1ccc(Nc2nc(-c3ccc(F)c(F)c3)nc3ccccc23)cc1"
  pEC50: "> 6.00"
- molecule: "CCOC(=O)N1CCN(c2nc(-c3ccccc3Cl)nc3ccccc23)CC1"
  pEC50: "> 6.00"
- molecule: "Cc1cccc2c(N3CCCC3)nc(CNS(=O)(=O)c3cccc4ccccc34)nc12"
  pEC50: "> 6.00"
- molecule: "COC(=O)N1CCN(c2nc(-c3ccccc3Cl)nc3ccccc23)CC1 [Example 226]"
  pEC50: "> 6.00"
- molecule: "CN(CC1CCCCC1)c1nc(-c2ccccc2Cl)nc2ccccc12"
  pEC50: "> 6.00"
- molecule: "CN1CCCN(c2nc(-c3ccccc3Cl)nc3ccccc23)CC1"
  pEC50: "> 6.00"
- molecule: "CC(C)(C)c1ccc(Nc2nc(-c3ccccc3Cl)nc3ccccc23)cc1"
  pEC50: "< 6.00"
- molecule: "CN1CCN(c2nc(-c3ccccc3Cl)nc3ccc(C(C)(C)C)cc23)CC1"
  pEC50: "> 6.00"
- molecule: "CNC(=O)c1sccc1S(=O)(=O)NCc1nc(N2CCCC2)c2ccccc2n1"
  pEC50: "< 6.00"
- molecule: "Cc1ccccc1C(C)c1nc(N2CCCC2)c2ccccc2n1 (stereo not shown)"
  pEC50: "< 6.00"
- molecule: "COc1ccc(Oc2nc(N3CCCC3)c3cc(OC)c(OC)cc3n2)cc1"
  pEC50: "< 6.00"
- molecule: "Fc1ccccc1-c1nc(N2CCOCC2)c2ccccc2n1"
  pEC50: "< 6.00"
- molecule: "CN1CCN(c2nc(-c3ccccc3Cl)nc3ccc(Cl)cc23)CC1"
  pEC50: "> 6.00"
- molecule: "c1ccc(NCc2nc(Nc3ccccc3)c3ccccc3n2)cc1"
  pEC50: "< 6.00"
- molecule: "CC(C)(C)c1ccc(-c2nc(Nc3ccc(F)c(F)c3)c3ccccc3n2)cc1"
  pEC50: "> 6.00"
- molecule: "Fc1ccc(-c2nc(N3CCOCC3)c3ccccc3n2)cc1F"
  pEC50: "< 6.00"
- molecule: "CC(=O)N1CCN(c2nc(-c3ccccc3Cl)nc3cccc(F)c23)CC1"
  pEC50: "> 6.00"
- molecule: "COc1ccc2nc(-c3ccccc3Cl)nc(N3CCSCC3)c2c1"
  pEC50: "> 6.00"
- molecule: "CC(=O)N1CCN(c2nc(-c3ccccc3F)nc3cccc(F)c23)CC1"
  pEC50: "> 6.00"
- molecule: "CCOC(=O)N1CCN(c2nc(-c3ccccc3Cl)nc3ccc(Cl)cc23)CC1"
  pEC50: "< 6.00"
- molecule: "CN(c1nc(-c2ccc(C(C)(C)C)cc2)nc2ccccc12)C1CCCCC1"
  pEC50: "> 6.00"
- molecule: "CCOC(=O)N1CCN(c2nc(-c3ccc(F)c(F)c3)nc3ccccc23)CC1"
  pEC50: "< 6.00"
- molecule: "CCCc1nc(N2CCN(C)CC2)c2ccccc2n1"
  pEC50: "< 6.00"
- molecule: "CCCN1[C@H](C)CN(c2nc(-c3ccccc3Cl)nc3ccccc23)C[C@@H]1C"
  pEC50: "> 6.00"
- molecule: "CCN1CCN(c2nc(-c3ccccc3Cl)nc3ccccc23)C(=O)C1"
  pEC50: "< 6.00"
- molecule: "CCCN1CCN(c2nc(-c3ccccc3Cl)nc3ccccc23)CC1"
  pEC50: "> 6.00"
- molecule: "COc1ccc2nc(C3CCCCC3)nc(N3CCCC3)c2c1"
  pEC50: "> 6.00"
- molecule: "O=C(c1ncc[nH]1)N1CCN(c2nc(-c3ccccc3Cl)nc3ccccc23)CC1"
  pEC50: "< 6.00"
- molecule: "CC(C)(C)c1ccc(Nc2nc(-c3ccc(C(F)(F)F)cc3)nc3ccccc23)cc1"
  pEC50: "> 6.00"
- molecule: "FC(F)(F)Oc1ccc2nc(-c3ccc(Cl)cc3)nc(N3CCSCC3)c2c1"
  pEC50: "< 6.00"
- molecule: "CC(C)Nc1nc(CNS(=O)(=O)c2cccc3ccccc23)nc2ccccc12"
  pEC50: "> 6.00"
